# measurement_description: LNP size and polydispersity index (PDI) by dynamic light scattering
# Type: physicochemical
# condition_details: LNP with mRNA (SEQ ID NO: 2)
Lab note: cut-off is 0.1. Strictly less in PDI is TRUE. Exactly 0.1 or more is FALSE.

Example cases with answers are listed next.
Q) A record lists CCCCCCCCCCC(CCCCCCCC)COC(=O)CCCCCN(CCCCCCCCOC(=O)C(CCCCCC)CCCCCCCC)CCOC(=O)NCCN(C)C (centres unmarked) [Lipid 51] . Is its PDI below 0.1?
A) FALSE

Q) A record lists CCCCC/C=C\C/C=C\CCCCCCCCN(CCCCCCCC/C=C\C/C=C\CCCCC)CCOC(=O)[C@@H](N)Cc1c[nH]cn1 [Lipid B, reference compound] . Is its PDI below 0.1?
A) FALSE

Q) A record lists CCCCCCCCC(CCCCCCCC)OC(=O)CCCCCCCN(CCCCCCCCOC(=O)C(CCCCCC)CCCCCCCC)CCCOC(=O)NCCN1CCCC1 (centres unmarked) [Lipid 350] . Is its PDI below 0.1?
A) FALSE

Q) A record lists CCCCCCCCC(CCCCCC)C(=O)OCCCCCCCCN(CCCCCCCCOC(=O)C(CCCCCC)CCCCCCCC)CCOC(=O)NCCN(C)C (centres unmarked) [Lipid 6] . Is its PDI below 0.1?
A) TRUE

Others:
Q) A record lists CCCCC/C=C\C/C=C\CCCCCCCCN(CCCCCCCC(=O)OC(CCCCCCCC)CCCCCCCC)CCOC(=O)NCc1ncc[nH]1 [Lipid 132] . Is its PDI below 0.1?
A) FALSE

---

# Tested on: RAW 264.7 cells
# measurement_description: In vitro toxicity (CellTiter-Glo cell viability), RAW 264.7;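 also: percent of untreated cells luminescence signal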
# Format: cell-based
# condition_details: cirRNA (SEQ ID NO: 1) LNPs; RAW 264.7 cells
Below, each entry is listed alongside its reported In vitro Viability RAW.
Your answer is read as %, so omit the unit and give the number.

In the examples that follow, each entry is paired with its recorded In vitro Viability RAW.
Q) Request the reported In vitro Viability RAW associated with CCCCCCCCCC(=O)OCCCCCCCN(CCCCCCCCOC(=O)C(CCCCCC)CCCCCCCC)CCCOC(=O)NCCN1CCCC1 (stereo not shown) [Lipid 357]
A) 8

Q) Request the reported In vitro Viability RAW associated with CCCCCCCCCCC(CCCCCCCC)COC(=O)CCCCCN(CCCCCC(=O)OCC(CCCCCCCC)CCCCCCCCCC)CCOC(=O)NCCCN(C)C (stereo not shown) [Lipid 166]
A) 12

Q) Request the reported In vitro Viability RAW associated with CCCCCCCCC(CCCCCC)C(=O)OCCCCCCCCN(CCCCCCCCOC(=O)C(CCCCCC)CCCCCCCC)CCCOC(=O)NCCN1CCCCC1 (stereo not shown) [Lipid 380]
A) 86

Q) Request the reported In vitro Viability RAW associated with CCCCCCCCCC(=O)OCCCCCCCN(CCCCCCCOC(=O)CCCCCCCCC)CCOC(=O)NCCN1CCN(C)CC1 [Lipid 178]
A) 92

Others:
Q) Request the reported In vitro Viability RAW associated with CCCCCCCCCCCOC(=O)CCCCCN(CCCCCC(=O)OCCCCCCCCCCC)CCOC(=O)NCCN1CCN(C)CC1 [Lipid 156]
A) 93

Q) Request the reported In vitro Viability RAW associated with CCCCCCCCCC(=O)OCCCCCCCN(CCCCCCCCOC(=O)C(CCCCCC)CCCCCCCC)CCOC(=O)NCCN1CCCC1 (stereo not shown) [Lipid 195]
A) 96

Q) Request the reported In vitro Viability RAW associated with CCCCCCCCC(CCCCCC)C(=O)OCCCCCCCCN(CCCCCCCCOC(=O)C(CCCCCC)CCCCCCCC)CCCOC(=O)NCc1ncc[nH]1 (stereo not shown) [Lipid 375]
A) 90
